- stated.conditions: in acetone, 273.15 K
observable: solubility (mole fraction)
// keep it numeric: no unit symbol after the value

Any idea what solubility (mole fraction) was measured for `Cc1ccccc1S(N)(=O)=O` ?
0.0728

====

- stated.conditions: in ethyl formate, 319.15 K
observable: solubility (mole fraction)
// no unit string in output, number only

What measured solubility (mole fraction) goes with `Cc1ccccc1S(N)(=O)=O` ?
0.0408

====

- stated.conditions: in isopentanol, 323.85 K
observable: solubility (mole fraction)

For the compound `Cc1ccccc1S(N)(=O)=O` , what solubility (mole fraction) is on record?
0.0214

====

- stated.conditions: in methyl acetate, 279.15 K
observable: solubility (mole fraction)
Hey, just send me the number, nothing else.

Value lookup for solubility (mole fraction); key = `Cc1ccccc1S(N)(=O)=O`
0.0303

====

- stated.conditions: in ethyl formate, 308.95 K
observable: solubility (mole fraction)
The reply should be a number, written without any unit.

Bench note: what solubility (mole fraction) did `Cc1ccccc1S(N)(=O)=O` show?
0.0316

====

- stated.conditions: in methanol, 318.15 K
observable: solubility (mole fraction)
Give a plain numeric answer without units written out.

Value lookup for solubility (mole fraction); key = `Cc1ccccc1S(N)(=O)=O`
0.0567

====

- stated.conditions: in isobutanol, 303.25 K
observable: solubility (mole fraction)

Requested read-out: solubility (mole fraction). Entry: `Cc1ccccc1S(N)(=O)=O`
0.00934

====

- stated.conditions: in cyclohexanone, 319.15 K
observable: solubility (mole fraction)

For the compound `Cc1ccccc1S(N)(=O)=O` , what solubility (mole fraction) is on record?
0.156

====

- stated.conditions: in n-propanol, 279.15 K
observable: solubility (mole fraction)
Answer using only a numeral; do not append any unit.

Query: solubility (mole fraction); subject: `Cc1ccccc1S(N)(=O)=O`
0.0055

====

- stated.conditions: in methyl acetate, 323.85 K
observable: solubility (mole fraction)

Returns the measured solubility (mole fraction) for the input compound. Input: `Cc1ccccc1S(N)(=O)=O`
0.0809

====

- stated.conditions: in isobutanol, 283.75 K
observable: solubility (mole fraction)
Lab note: jot the number down without any unit.

// returns reported solubility (mole fraction) for input `Cc1ccccc1S(N)(=O)=O`
0.00363

====

- stated.conditions: in isobutanol, 318.15 K
observable: solubility (mole fraction)
// no unit, no text: just the number

If you can, please state the reported solubility (mole fraction) value of `Cc1ccccc1S(N)(=O)=O` .
0.0178

====

- stated.conditions: in n-pentanol, 319.15 K
observable: solubility (mole fraction)
Give only the figure.

Recorded solubility (mole fraction) for `Cc1ccccc1S(N)(=O)=O` , please?
0.0195

====

- stated.conditions: in isopropanol, 298.95 K
observable: solubility (mole fraction)
Give the figure by itself; no unit, no explanation.

Value lookup for solubility (mole fraction); key = `Cc1ccccc1S(N)(=O)=O`
0.0115

====

- stated.conditions: in cyclopentanone, 279.15 K
observable: solubility (mole fraction)
Give the value as a plain number.

Look up solubility (mole fraction) for this compound: `Cc1ccccc1S(N)(=O)=O`
0.104

====

- stated.conditions: in cyclohexanone, 293.35 K
observable: solubility (mole fraction)
// no unit string in output, number only

Quick one: solubility (mole fraction) of `Cc1ccccc1S(N)(=O)=O` ?
0.105

====

- stated.conditions: in cyclohexanone, 289.15 K
observable: solubility (mole fraction)

Give its solubility (mole fraction) value. Item: `Cc1ccccc1S(N)(=O)=O`
0.0992

====

- stated.conditions: in n-pentanol, 273.15 K
observable: solubility (mole fraction)
API note: the answer field is a bare number with no unit suffix.

Entry `Cc1ccccc1S(N)(=O)=O` : reported solubility (mole fraction) = ?
0.0027

====

- stated.conditions: in acetonitrile, 273.15 K
observable: solubility (mole fraction)
// keep it numeric: no unit symbol after the value

Name the reported solubility (mole fraction) value associated with the compound `Cc1ccccc1S(N)(=O)=O`
0.0167

====

- stated.conditions: in ethanol, 298.95 K
observable: solubility (mole fraction)
Answer as a number with no unit attached.

Given `Cc1ccccc1S(N)(=O)=O` , state its recorded solubility (mole fraction).
0.0196

====

- stated.conditions: in isopropanol, 318.15 K
observable: solubility (mole fraction)
Lab note: record just the number, no unit beside it.

Requested read-out: solubility (mole fraction). Entry: `Cc1ccccc1S(N)(=O)=O`
0.0252

====

- stated.conditions: in n-pentanol, 298.95 K
observable: solubility (mole fraction)
Returns: the value as a bare number; no unit string appended.

I would be grateful if you could share the reported solubility (mole fraction) for `Cc1ccccc1S(N)(=O)=O` .
0.00875

====

- stated.conditions: in n-propanol, 313.15 K
observable: solubility (mole fraction)

Data request, read-out solubility (mole fraction), for `Cc1ccccc1S(N)(=O)=O`
0.0215

====

- stated.conditions: in isopentanol, 319.15 K
observable: solubility (mole fraction)
Please give the numeric answer without any surrounding text.

Fill in the blank: the reported solubility (mole fraction) of `Cc1ccccc1S(N)(=O)=O` is ____.
0.0183

====

- stated.conditions: in ethanol, 279.15 K
observable: solubility (mole fraction)
Hey, just send me the number, nothing else.

So what's the measured solubility (mole fraction) for this one? `Cc1ccccc1S(N)(=O)=O`
0.00971

====

- stated.conditions: in methanol, 283.75 K
observable: solubility (mole fraction)
// return just the number, without any unit appended

Please look up its solubility (mole fraction): `Cc1ccccc1S(N)(=O)=O`
0.0189

====

- stated.conditions: in dichloromethane, 273.15 K
observable: solubility (mole fraction)

solubility (mole fraction) for `Cc1ccccc1S(N)(=O)=O` ?
0.00161

====

- stated.conditions: in acetone, 313.15 K
observable: solubility (mole fraction)
Kindly provide the number alone.

Sample `Cc1ccccc1S(N)(=O)=O` — what was its solubility (mole fraction)?
0.134

====

- stated.conditions: in methyl acetate, 303.25 K
observable: solubility (mole fraction)
Please give only the number in your answer, with no unit.

// solubility (mole fraction) lookup, key: `Cc1ccccc1S(N)(=O)=O`
0.0513

====

- stated.conditions: in cyclopentanone, 313.15 K
observable: solubility (mole fraction)

// returns reported solubility (mole fraction) for input `Cc1ccccc1S(N)(=O)=O`
0.16

====

- stated.conditions: in ethyl acetate, 298.95 K
observable: solubility (mole fraction)
// print number alone

Query: solubility (mole fraction); subject: `Cc1ccccc1S(N)(=O)=O`
0.0377

====

- stated.conditions: in cyclopentanone, 303.25 K
observable: solubility (mole fraction)
Lab note: record just the number, no unit beside it.

Which value of solubility (mole fraction) has been reported for `Cc1ccccc1S(N)(=O)=O` in the records?
0.142

====

- stated.conditions: in acetonitrile, 313.15 K
observable: solubility (mole fraction)

Tell me the measured solubility (mole fraction) of `Cc1ccccc1S(N)(=O)=O` , please.
0.0533

====

- stated.conditions: in n-propanol, 303.25 K
observable: solubility (mole fraction)
Reply with the value as a number alone.

Please report the recorded solubility (mole fraction) for `Cc1ccccc1S(N)(=O)=O` .
0.0148

====

- stated.conditions: in ethanol, 323.15 K
observable: solubility (mole fraction)
Output spec: single numeric token, no unit.

// query solubility (mole fraction) value for entry `Cc1ccccc1S(N)(=O)=O`
0.0439

====

- stated.conditions: in isobutanol, 279.15 K
observable: solubility (mole fraction)
Just the number, please.

What value of measured solubility (mole fraction) is listed for `Cc1ccccc1S(N)(=O)=O` ?
0.00284

====

- stated.conditions: in methyl acetate, 283.95 K
observable: solubility (mole fraction)
Simply state the number, no unit and no words.

// query solubility (mole fraction) value for entry `Cc1ccccc1S(N)(=O)=O`
0.0337

====

- stated.conditions: in ethanol, 289.15 K
observable: solubility (mole fraction)
Keep the answer to the number alone.

Which solubility (mole fraction) is reported for this molecule? `Cc1ccccc1S(N)(=O)=O`
0.0147

====

- stated.conditions: in methyl acetate, 308.95 K
observable: solubility (mole fraction)

Requested field: solubility (mole fraction). Item: `Cc1ccccc1S(N)(=O)=O`
0.058

====

- stated.conditions: in n-butanol, 323.15 K
observable: solubility (mole fraction)
Write no unit; give the number alone.

Query: solubility (mole fraction); subject: `Cc1ccccc1S(N)(=O)=O`
0.0262

====

- stated.conditions: in n-pentanol, 293.35 K
observable: solubility (mole fraction)
Field format: numeric only.

I'd like to know its solubility (mole fraction). The molecule in question is `Cc1ccccc1S(N)(=O)=O`
0.00705

====

- stated.conditions: in cyclohexanone, 298.95 K
observable: solubility (mole fraction)

So what does the record say about solubility (mole fraction) for `Cc1ccccc1S(N)(=O)=O` ?
0.114

====

- stated.conditions: in ethyl acetate, 283.75 K
observable: solubility (mole fraction)
// return just the number, without any unit appended

Return reported solubility (mole fraction); argument: `Cc1ccccc1S(N)(=O)=O`
0.0278

====

- stated.conditions: in cyclohexanone, 279.15 K
observable: solubility (mole fraction)

Returns the measured solubility (mole fraction) for the input compound. Input: `Cc1ccccc1S(N)(=O)=O`
0.0861
